Data origin: paper PMC9675756

# assay_system: A3G-CTD2 (catalytically active), crystal and NMR construct (human)
# experiment: competitive inhibition of deamination, real-time 1H NMR
# measurement_conditions: N at position 6 = 2'-deoxy-zebularine (replaces target C); hydrated to 4-(R)-hydroxy-3,4-dihydro form in the active enzyme; DTT, 0.002% Tween 20, 50 nM protein, RED-tris-NTA dye, 23 C; NMR inhibition: 50 mM NaPO4 pH 6.5, 100 mM NaCl, 0.00
assay_metric: pKi
Please treat pKi as minus the base-10 logarithm of the molar concentration.

query: Endpoint output: pKi of AATCCNAAA [5'-AATCCdZAAA (dZ-ssDNA inhibitor)] . Value?
result: 5.51
